The origin of these recorded values is patent US20240083958A1.

- Study system: human β2AR (human, UniProt P07550 2-365)
- Experiment summary: cell-based or functional assay
Bridge positions count the residues as written; N and C are the ends. Square brackets hold non-standard residues; d marks the D form. Primed or numbered codes have the meaning given here. Azk = residue with azidated side chain, clicked to Pra; Pra′ = residue with alkynyl side chain, clicked to Azk; S5 = C=CCCC[C@](C)(N)C(=O)O
Test readout: Shift (averaged)
Returns: the value as a bare number; no unit string appended.

Known results for binders:
• Ac-FNDCRD[S5]IQR[S5]HLRQYELL-OH (staple 7-11) [compound 8] = 3
• Ac-FNECRDKIQRMHLRQYELL-OH [compound 23] = 3
• Ac-FNDCRD[S5]IQR[S5]HLRQYELL-OH (bridges not given here) [compound 6] = 9
• H-FNDCRD[Pra′]IQR[Azk]HLRQYELL-OH (triazole 7-11) [compound 10] = 7
• Ac-FNDCRD[Pra′]IQR[Azk]HLRQYELL-OH (triazole 7-11) [compound 11] = 7

Turning now to a further binder:
Problem: Could you tell me which Shift (averaged) is on file for Ac-FN[Pra′]CRD[Azk]IQRMHLRQYELL-OH (triazole 3-7) [compound 12] ?
Solution: 27
